# EXPERIMENTAL_TARGET: T1, LIN7C, Q9NUP9
# T1 sequence (Q9NUP9 88-185, limits assumed, looked up): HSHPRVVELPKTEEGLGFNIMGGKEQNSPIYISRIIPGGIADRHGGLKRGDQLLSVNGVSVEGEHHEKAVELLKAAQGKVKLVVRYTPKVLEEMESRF
# TEST_SUMMARY: holdup assay
# Set-up: key: below the threshold = too weak to quantify, mostly under pKd 3.1 to 4
# REPORTED_CONDITIONS: plain residues with an end cap or a label only (N-terminal biotin on a linker: ahx)
REPORTED_METRIC: pKd

• KEYDDELTFF [USH1C, Q9Y6N9] = below the threshold
• PKMKLNETSF [SHKBP1, Q8TBC3] = 3.49
• KDECVIATEV [DLL1, O00548] = below the threshold
• SAPATLSSRA [PDLIM2, Q96JY6] = below the threshold
